protocol notes: Ex vivo biodistribution in mice bearing LNCaP tumor xenografts
Design: species or system mouse (male NOD-scid IL2Rg^null (NSG))
condition details: mouse, heart, iv, 1 h Blocked (co-injection of 2-PMPA, 0.5 mg), mean ± SD; read-out: Heart uptake
recorded endpoint: tissue uptake at 1 h (%ID/g)

molecule	tissue uptake at 1 h (%ID/g)
O=C(O)CC[C@H](NC(=O)N[C@@H](CCCCNC(=O)[C@H](Cc1c2ccccc2cc2ccccc12)NC(=O)[C@H]1CC[C@H](CNC(=O)[C@H](CCNC(=O)c2ccc(F)nc2)NC(=O)CCC(=O)N(CC(=O)O)CC(=O)O)CC1)C(=O)O)C(=O)O [^18F-KL01120]	0.35
O=C(O)CCC[C@H](NC(=O)N[C@@H](CCCCNC(=O)[C@H](Cc1c2ccccc2cc2ccccc12)NC(=O)[C@H]1CC[C@H](CNC(=O)CNC(=O)[C@H](CCCCNC(=O)c2ccc(F)nc2)NC(=O)CN(CC(=O)O)CC(=O)O)CC1)C(=O)O)C(=O)O [^18F-KL01130]	0.45

###

protocol notes: Ex vivo biodistribution in mice bearing LNCaP tumor xenografts
Parameters: species or system mouse (male NOD-scid IL2Rg^null (NSG))
condition details: mouse, fat, iv, 1 h post-injection, mean ± SD; read-out: Fat uptake
recorded endpoint: tissue uptake at 1 h (%ID/g)

molecule	tissue uptake at 1 h, %ID/g
O=C(O)CCC[C@H](NC(=O)N[C@@H](CCCCNC(=O)[C@H](Cc1c2ccccc2cc2ccccc12)NC(=O)[C@H]1CC[C@H](CNC(=O)CNC(=O)[C@H](CCCCNC(=O)c2ccc(F)nc2)NC(=O)CN(CC(=O)O)CC(=O)O)CC1)C(=O)O)C(=O)O [^18F-KL01130]	0.22

(1) O=C(O)CC[C@H](NC(=O)N[C@@H](CCCCNC(=O)[C@H](Cc1c2ccccc2cc2ccccc12)NC(=O)[C@H]1CC[C@H](CNC(=O)[C@H](CCNC(=O)c2ccc(F)nc2)NC(=O)CCC(=O)N(CC(=O)O)CC(=O)O)CC1)C(=O)O)C(=O)O [^18F-KL01120]
(2) O=C(O)CCC[C@H](NC(=O)N[C@@H](CCCCNC(=O)[C@H](Cc1c2ccccc2cc2ccccc12)NC(=O)[C@H]1CC[C@H](CNC(=O)[C@H](CCCCNC(=O)c2ccc(F)nc2)NC(=O)CN(CC(=O)O)CC(=O)O)CC1)C(=O)O)C(=O)O [^18F-KL01040]
Asked: Between 1 and 2 , which one has the lower reported tissue uptake at 1 h value? # reply format: chosen label
Given back: 2
(2: 0.61 %ID/g, 1: 1.57 %ID/g)

###

protocol notes: Ex vivo biodistribution in mice bearing LNCaP tumor xenografts
Design: species or system mouse (male NOD-scid IL2Rg^null (NSG))
condition details: mouse, lncap tumor, iv, 1 h Blocked (co-injection of 2-PMPA, 0.5 mg), mean ± SD; read-out: LNCaP Tumor uptake
Source text: All imaging and biodistribution studies used male NOD-scid IL2Rg^null (NSG) mice and conducted according to the guidelines established by the Canadian Council on Animal Care and approved by Animal Ethics Committee of the University of British Columbia. For tumor inoculations, mice were anesthetized via inhalation of 2% isoflurane in oxygen and implanted subcutaneously with 5×10^6 LNCaP cells below the left shoulder. […]
recorded endpoint: tissue uptake at 1 h (%ID/g)

molecule	units symbol	tissue uptake at 1 h
O=C(O)CC[C@H](NC(=O)N[C@@H](CCCCNC(=O)[C@H](Cc1c2ccccc2cc2ccccc12)NC(=O)[C@H]1CC[C@H](CNC(=O)[C@H](CCNC(=O)c2ccc(F)nc2)NC(=O)CCC(=O)N(CC(=O)O)CC(=O)O)CC1)C(=O)O)C(=O)O [^18F-KL01120]	%ID/g	1.87
O=C(O)CCC[C@H](NC(=O)N[C@@H](CCCCNC(=O)[C@H](Cc1c2ccccc2cc2ccccc12)NC(=O)[C@H]1CC[C@H](CNC(=O)CNC(=O)[C@H](CCCCNC(=O)c2ccc(F)nc2)NC(=O)CN(CC(=O)O)CC(=O)O)CC1)C(=O)O)C(=O)O [^18F-KL01130]	%ID/g	2.11
